test system: EKVX NSCLC; experiment: NCI tumour cell line growth inhibition, 48 h
REPORTED_ENDPOINT: TGI

- MOLECULE: "O=C(O)/C=C\\C(=O)Nn1c(Cc2ccc(Cl)cc2)n[nH]c1=O"
  TGI: "> 100 µM"

Reported TGI ( CS(=O)(=O)OCCCNCCCOS(C)(=O)=O ) = 6030 µM

Form field TGI, entry CN=C1C=CC(=C(c2ccc(N(C)C)cc2)c2ccc(N(C)C)cc2)C=C1 : 2.62 µM

Record summary for N#Cc1ccccc1NC(=O)C(=O)C1NC(=S)NC1=O (stereo unspecified) : reported TGI = > 100 µM

Documented TGI of CC1=CCC[C@H]2[C@](C)(CC3=CC(=O)C(SCC(C)C)=CC3=O)[C@@H](C)CC[C@]12C : 31 µM

Summary for this molecule, CC1(C)O[C@@H](C[C@]2(C#N)C[C@H](CCl)OC(C)(C)O2)C[C@@H](C#N)O1 : TGI is > 100 µM

###

test system: HCC-2998 colon; assay: NCI tumour cell line growth inhibition, 48 h; in the data active = GI50 below about 0.43 µM; inactive = the rest
Outcome (select one): Yes (active), No (inactive)

Example entries and their recorded answers appear below.
- COMPOUND: "N#CC1=C(N)Oc2c(ccc3ccccc23)C1c1cc(=O)oc2ccc(Cl)cc12 (stereo unspecified)"
  GROUP: "No"
- COMPOUND: "O=C(/C=C/C=C/c1ccccc1)c1ccco1"
  GROUP: "No"
- COMPOUND: "CCN(CC)CCCC(C)Nc1cc(-c2cccc(OC(F)(F)F)c2)nc2ccc(N3CCCC3)cc12 (stereo unspecified)"
  GROUP: "Yes"
- COMPOUND: "CCCc1cc(=O)n2c(C(=O)Nc3ccc(F)cc3)c(C(=O)Nc3ccc(F)cc3)sc2n1"
  GROUP: "No"
- COMPOUND: "COc1cc(OC)cc(C2C3=C(COC3=O)Nc3cc(OC)ccc32)c1 (stereo unspecified)"
  GROUP: "Yes"
- COMPOUND: "COc1ccc(C(=O)/C=C/c2cc(-c3cc(OC)c(OC)c(OC)c3)n[nH]2)cc1"
  GROUP: "No"

I'd appreciate the recorded outcome for COc1ccc(C(=O)c2cc(C)c(OC)c(C)c2)c(OC)c1NC(C)=O from this test.
Yes

###

tested on: HCT-116 colon; assay: NCI tumour cell line growth inhibition, 48 h
Recorded TGI, one value per entry.

Recorded TGI, per entry:
- MOLECULE: "COC1CC(O)C(OC(=O)c2ccccc2)C(C)O1 (configuration not stated)"
  TARGET: "HCT-116 colon"
  TGI: "> 100 µM"
- MOLECULE: "COC(=O)Nc1nc2ccccc2[nH]1"
  TARGET: "HCT-116 colon"
  TGI: "> 100 µM"
- MOLECULE: "COC1=CC(=O)N(C)C(O)C1(C#N)OC1OC(CO)C(O)C(O)C1O (configuration not stated)"
  TARGET: "HCT-116 colon"
  TGI: "> 100 µM"

Query CCC(C)CC(C)CC(C)/C=C(\C)C1=C(C)CC(C)(O)O1 (configuration not stated) yields TGI of > 100 µM

# TGI of O=C(c1ccc(Cl)cc1)N1CCN=C1c1cc2ccccc2c2ccccc12 = 28.1 µM

Measured TGI of COC1=CC(C2c3cc4c(cc3[C@@H](Nc3ccc(F)cc3)C3COC(=O)[C@H]23)OCO4)=CC(=O)C1=O (some centres not stated) : 30.5 µM

Query O=C1NC(N2CCOCC2)=N/C1=C\c1ccc(O)cc1 yields TGI of > 100 µM

The molecule listed as O=C(/C=C/C=C/c1ccccc1)c1ccco1 shows TGI equal to 25.1 µM

The recorded TGI for Clc1cc(Cl)ncn1 is > 100 µM

###

tested on: RXF 393 renal; experiment: NCI tumour cell line growth inhibition, 48 h
REPORTED_ENDPOINT: TGI

Study these solved cases before continuing.
- MOLECULE: "COC(=O)c1c(-c2cccs2)oc(-c2cccs2)c1C(=O)OC"
  TARGET: "RXF 393 renal"
  TGI: "> 100 µM"
- MOLECULE: "O=C(Nc1nn[nH]n1)c1nc(-c2ccccc2)cc(=O)[nH]1"
  TARGET: "RXF 393 renal"
  TGI: "> 100 µM"
- MOLECULE: "Clc1cc(Cl)ncn1"
  TARGET: "RXF 393 renal"
  TGI: "> 100 µM"

Please examine the following record next.
Given item C[C@H](C1CC2(C)OC2(C)C(=O)O1)[C@H]1CC[C@H]2[C@@H]3[C@@H]4O[C@@H]4[C@@]4(O)CC=CC(=O)[C@]4(C)[C@H]3CC[C@]12C (stereo partly specified) , the value recorded as its TGI is 23.9 µM

###

test system: HOP-62 NSCLC; assay: NCI tumour cell line growth inhibition, 48 h
REPORTED_ENDPOINT: TGI (µM)
Form entry: value (µM) — number only.

In the examples that follow, each entry is paired with its recorded TGI.
- STRUCTURE_SMILES: "CCOC(=O)/C(=C/c1cccc(Cl)c1)N(CC)CC"
  TGI (µM): 77.8
- STRUCTURE_SMILES: "O=C(NC(=O)c1c(Cl)nc2sccn12)Nc1ccc(Cl)cc1"
  TGI (µM): 43.3

get_value(item= Clc1ccc(C2=CCN3CC=C(c4ccc(Cl)cc4)C23)cc1 , readout=TGI) returns 26.7

Note to self: TGI recorded for C#CC1=CC(=O)C(OC)=CC1=O was 36.6

###

system: HT29 colon; experiment: NCI tumour cell line growth inhibition, 48 h; in the data active = GI50 below about 0.43 µM; inactive = the rest
The categories you may choose from are active, inactive

See these solved cases before continuing.
- COMPOUND: "O=C1CSC(c2ccccc2Cl)N1c1nnc(Cn2cnnc2)o1 (stereo not given)"
  GROUP: "inactive"
- COMPOUND: "COc1ccc(-c2cncn2-c2cc(OC)c(OC)c(OC)c2)cc1"
  GROUP: "active"
- COMPOUND: "O=C1/C(=C/c2ccc(F)cc2)CN(C(=O)CCN2CCC(=NO)CC2)C/C1=C\\c1ccc(F)cc1"
  GROUP: "inactive"
- COMPOUND: "CS(=O)(=O)c1ccc(Nc2nc(N[C@H]3CCCC[C@H]3N)nc3cc[nH]c(=O)c23)cc1"
  GROUP: "inactive"
- COMPOUND: "Cc1c(C#N)cccc1[C@@H](C)Nc1nnc(C)c2cnc(N3CCOCC3)cc12"
  GROUP: "inactive"

# ---- query compound ----
Identify the outcome logged in this assay for the compound shown: CS(=O)(=O)Nc1cccc(-c2ccc3ncnc(Nc4ccc(F)c(Cl)c4)c3c2)c1
inactive

###

system: SNB-75 CNS; test: NCI tumour cell line growth inhibition, 48 h; in the data active = GI50 below about 0.43 µM; inactive = the rest
Respond with a class label; see 1.0 for active, 0.0 for inactive

Observe how each entry below is paired with its result.
- MOLECULE: "O=C(NCCCc1cn[nH]c1)c1ccc(-c2ccncc2)c(C#Cc2ccc(F)cc2)c1"
  TARGET: "SNB-75 CNS"
  GROUP: 0.0
- MOLECULE: "ClCc1ccccc1Cn1cnc2ncnc(Cl)c21"
  TARGET: "SNB-75 CNS"
  GROUP: 0.0
- MOLECULE: "CCCCCCSSC(=S)N(CC)CC"
  TARGET: "SNB-75 CNS"
  GROUP: 0.0
- MOLECULE: "COc1ccccc1S(=O)(=O)Nc1ccc2c3c(cc(CCC(=O)NCCCCNc4cccc5c4C(=O)N(C4CCC(=O)NC4=O)C5=O)cc13)C(=O)N2C (stereo not given)"
  TARGET: "SNB-75 CNS"
  GROUP: 1.0
- MOLECULE: "COc1cc(OC)cc(C2C3=C(COC3=O)Nc3cc(OC)ccc32)c1 (stereo not given)"
  TARGET: "SNB-75 CNS"
  GROUP: 1.0
- MOLECULE: "Cc1ccc(N=C[N-]c2ccc(C)cc2)cc1.Cc1ccc(N=C[N-]c2ccc(C)cc2)cc1.O=C([O-])C(F)(F)F.O=C([O-])C(F)(F)F.[OH3+].[OH3+].[Rh+2].[Rh+2]"
  TARGET: "SNB-75 CNS"
  GROUP: 0.0
- MOLECULE: "CN=C1C=CC(=C(c2ccc(N(C)C)cc2)c2ccc(N(C)C)cc2)C=C1"
  TARGET: "SNB-75 CNS"
  GROUP: 1.0
- MOLECULE: "CN(C)CCCn1c(=O)c2ccccc2c2cnc3[nH]ccc3c21"
  TARGET: "SNB-75 CNS"
  GROUP: 0.0

For C=C1C(C)C2C(Cc3ccccc3)NC(=O)C23OC(=O)/C=C\CC(=O)CCC(C)C/C=C/C3C1O (stereo not given) , which call appears in the assay record?
0.0

Per the records of this test, what outcome belongs to CC(C)N(Cc1ccc(CN(C(=O)CCl)C(C)C)cc1)C(=O)CCl ?
0.0

###

tested on: A549 NSCLC; test: NCI tumour cell line growth inhibition, 48 h
Below, each entry is listed alongside its reported TGI.
Expressed in µM, but write only the number.

Item: Cc1c([C@H](C)[C@@H]2NC[C@@H](C)C[C@H]2O)ccc2c1C[C@H]1[C@H]2CC=C2C[C@@H](O)CC[C@@]21C | TGI: 47.9

TGI reported for this molecule CC(=O)N1CCN(CCNC(=O)n2cc(-c3ccncc3)c(-c3cc(O)cc(Cl)c3)n2)CC1 : 38.7

Memo: CN=C1C=CC(=C(c2ccc(N(C)C)cc2)c2ccc(N(C)C)cc2)C=C1 , reported TGI: 1.38

Summary for this molecule, COc1cccc2cc(N(C)c3nc(C)nc4c3CCC4)ccc12 : TGI is 14.2

All figures here come from PubChem BioAssay (NCI).
